Recorded composite z-score values for a group of compounds are listed next.
System: wheat germ agglutinin (Triticum aestivum), Alexa647-labelled
Assay: Alexa647-WGA lectin binding to printed small molecules – biochemical, small-molecule microarray, 635/667 nm fluorescence, artefact control for SMM control-protein annotation, profiling panel (AID 1140);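 note: score merges 667 nm feature emission with signal to noise over triplicate slides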
Conditions: WGA-A647 binding, 635 nm fluorescence, higher = more signal
QUANTITY: composite z-score

1) O=C(NC1CC1)[C@@H]1c2ccccc2C(=O)N(C2Cc3ccccc3C2)[C@H]1c1ccc(CO)cc1: 0.0895
2) CCCCC(=C=CC[C@H](O)c1cccc(OCCO)c1)C[C@H](O)c1ccccn1: 0.0704
3) CN1C(=O)C2C=CC(C(O)C=Cc3ccc([N+](=O)[O-])cc3)N(Nc3ccccc3)C2C1=O (stereo not drawn): 0.289
4) CC(C)CNC(=O)[C@@]1(Cc2ccccc2I)c2ccccc2C(=O)N(Cc2ccccc2C(F)(F)F)[C@H]1c1ccc(CO)cc1: 0.34
5) O=C1O[C@@H](c2ccccc2)[C@@H](c2ccccc2)N2[C@@H](c3ccc(OCCO)cc3)[C@]3(C(=O)Nc4ccc(C#CCCO)cc43)[C@@H](C(=O)NC[C@H](O)c3ccccc3)[C@H]12: 0.356
6) COc1ccc([Si](C)(C)[C@@H]2[C@@H](CCn3cc(CCO)nn3)O[C@]3(C(=O)N(Cc4cccc(N5C(=O)c6cccc7cccc5c67)c4)c4ccccc43)[C@H]2C)cc1: 0.509
7) COCC(=C=CC[C@H](O)c1cccc(OCCO)c1)CCO: -0.262
8) O=C1NC(=O)C2C1C=CC(C(O)c1ccc(I)cc1)N2Nc1ccccn1 (stereo not drawn): 1.23
